# target.under.test: PDE5A (Homo sapiens)
# Construct: they are full-length with N-terminal GST tag; GST (N); purchased BPS Biosciences 60050; host or cells: baculovirus infected Sf9 cells
# test.details: PDE enzyme activity assay (HTRF cGMP), PDE5A
# Type: biochemical
# run.conditions: recombinant enzyme; read-out: PDE5A1 inhibition (IC50)
readout.name: IC50

compound: CCCc1nn(C)c2c(=O)[nH]c(-c3cc(C(=O)c4ccc(C(=O)NO)s4)ccc3OCC)nc12
target.under.test: PDE5A (Homo sapiens)
IC50: < 10 nM
--
compound: CCCc1nn(C)c2c(=O)[nH]c(-c3cc(OCc4ccc(C(=O)NO)cc4)ccc3OCC)nc12
target.under.test: PDE5A (Homo sapiens)
IC50: 10 to 1000 nM
--
compound: CCCc1nn(C)c2c(=O)[nH]c(-c3cc(C4CCC(C(=O)NO)CC4)ccc3OCC)nc12 (racemic) [Example 1-75]
target.under.test: PDE5A (Homo sapiens)
IC50: 10 to 1000 nM
--
compound: CCCc1nn(C)c2c(=O)[nH]c(-c3cc(S(=O)(=O)NC4CCN(c5ncc(C(=O)NO)cn5)CC4)ccc3OCC)nc12
target.under.test: PDE5A (Homo sapiens)
IC50: < 10 nM
--
compound: CCCc1nn(C)c2c(=O)[nH]c(-c3cc(C4CCC(CC(=O)NO)CC4)ccc3OCC)nc12 (stereo not shown)
target.under.test: PDE5A (Homo sapiens)
IC50: 10 to 1000 nM

Provide IC50 values for the following items, in order.
1. CCCc1nn(C)c2c(=O)[nH]c(-c3cc(Cc4ccc(/C=C/C(=O)NO)cc4)ccc3OCC)nc12
2. CCCc1nc(C)c2c(=O)[nH]c(-c3cc(S(=O)(=O)N4CCN(Cc5ccc(/C=C/C(=O)NO)cc5)CC4)ccc3OCC)nn12
3. CCCc1nn(C)c2c(=O)[nH]c(-c3cc(-c4ccc(C(=O)NO)nc4)ccc3OCC)nc12
4. CCCc1nn(C)c2c(=O)[nH]c(-c3cc(C(OC)c4ccc(C(=O)NO)cc4)ccc3OCC)nc12 (stereo not shown)

Marked response:
10 to 1000 nM
< 10 nM
< 10 nM
10 to 1000 nM

Provide IC50 values for the following items, in order.
1. CCCc1nn(C)c2c(=O)[nH]c(-c3cc(CC4CCN(CC(=O)NO)CC4)ccc3OCC)nc12
2. O=C(CCCCCCC(=O)Nc1ccccc1)NO [Vorinostat, reference compound]
3. CCCc1nn(C)c2c(=O)[nH]c(-c3cc(C(=O)NO)ccc3OCC)nc12
4. CCCc1nn(C)c2c(=O)[nH]c(-c3cc(C4=CCC(CC(=O)NO)CC4)ccc3OCC)nc12 (stereo not shown)
5. CCCc1nn(C)c2c(=O)[nH]c(-c3cc(N4CCC5(CCCN(c6ncc(C(=O)NO)cn6)C5)C4)ccc3OCC)nc12 (stereo not shown)
6. CCCc1nc(C)c2c(=O)[nH]c(-c3cc(-c4ccc(C(=O)NO)cc4)ccc3OCC)nn12

Marked response:
< 10 nM
> 10000 nM
< 10 nM
10 to 1000 nM
10 to 1000 nM
< 10 nM

Provide IC50 values for the following items, in order.
1. O=C(/C=C/c1ccc(N2CC(=O)N3[C@H](c4ccc5c(c4)OCO5)c4[nH]c5ccccc5c4C[C@@H]3C2=O)cc1)NO
2. CCCc1nn(C)c2c(=O)[nH]c(-c3cc(NCC4CCN(c5ncc(C(=O)NO)cn5)CC4)ccc3OCC)nc12
3. CCCc1nn(C)c2c(=O)[nH]c(-c3cc(CC4CCC(C(=O)NO)CC4)ccc3OCC)nc12 (stereo not shown) [Example 1-28]
4. CCCc1nn(C)c2c(=O)[nH]c(-c3cc(N4CCC5(CC5C(=O)NO)C4)ccc3OCC)nc12 (stereo not shown)
5. CCCc1nn(C)c2c(=O)[nH]c(-c3cc(CC4CCC(C(=O)NO)CC4)ccc3OCC)nc12 (stereo not shown) [Example 1-29]
6. CC1CN(CC2CCN(c3ncc(C(=O)NO)cn3)CC2)CC1c1nc2c(cnn2C2CCOCC2)c(=O)[nH]1 (racemic)
7. CCCc1nc(C)c2c(=O)[nH]c(-c3cc(S(=O)(=O)N4CCN(c5ncc(C(=O)NO)cn5)CC4)ccc3OCC)nn12

Marked response:
10 to 1000 nM
10 to 1000 nM
10 to 1000 nM
10 to 1000 nM
10 to 1000 nM
1000 to 10000 nM
< 10 nM

Provide IC50 values for the following items, in order.
1. CCCc1nn(C)c2c(=O)[nH]c(-c3cc(C4CCC(C(=O)NO)CC4)ccc3OCC)nc12 (stereo not shown) [Example 1-40]
2. CCCc1nn(C)c2c(=O)[nH]c(-c3cc(Oc4ccc(C(=O)NO)cc4)ccc3OCC)nc12
3. CCCc1nn(C)c2c(=O)[nH]c(-c3cc(CC4CC(C(=O)NO)C4)ccc3OCC)nc12 (racemic) [Example 1-19]

Marked response:
10 to 1000 nM
10 to 1000 nM
10 to 1000 nM
